Assay: qHTS for Inhibitors of the Aldehyde Dehydrogenase Family (ALDH1A2, ALDH1A3, ALDH2, ALDH3A1) (AID 2061307); further: nearly all actives have a fitted effect of over 50% in size
Conditions: ALDH inhibition qHTS; series mostly up to 50.3 µM
Records with an inconclusive call do not appear. The source made the active and inactive calls. The call rests on the fitted dose curve; in most records, active means well fitted inhibition curve with a large enough effect; inconclusive means small, poorly fitted or top-dose-only effect; inactive means no such curve, though single readings can be large or run the other way.
Classes to choose from: active, inactive

compound=O=C1CN(S(=O)(=O)c2cccc(C(=O)Nc3ccc(OC(F)(F)F)cc3)c2)CCN1 qualitative_label=inactive
compound=CN(C)CCCNc1cc(O)c2ncccc2c1 qualitative_label=inactive
compound=CCc1ccc(NC(=O)Cn2c(=O)n(-c3ccccc3)c(=O)c3ccc(C(=O)NCc4ccc5c(c4)OCO5)cc32)cc1 qualitative_label=inactive
compound="CSc1sc(C(=O)NN)c2c1C(O)CCC2 (stereo not given)" qualitative_label=active

We next turn to a different compound, shown below.
Lookup: Could you check what this test reported for COc1ccc(/C=C/c2onc(C)c2S(=O)(=O)N2CCC(C(=O)N3CCc4ccccc4C3)CC2)cc1 ?
Found: inactive
